System: UO-31 renal
Experiment: NCI tumour cell line growth inhibition, 48 h
quantity kind: TGI (µM)
Return type: number; implicit unit µM.

Some solved cases for reference:
O=C1C(=O)c2c(nc3ccc(C(F)(F)F)cn23)-c2ccccc21 = 0.345
C=C1CCC[C@@H](C)C(O)[C@@H]2OC(=O)C(=C)[C@@H]2C[C@@H](OC(C)=O)[C@@]2(C)CC[C@@H]1O2 (some centres undefined) = 15.3
O=[N+]([O-])c1ccc(-n2nc3ccc4nonc4c3n2)cc1 = 62.9
Clc1ccc2c(c1)N(CCCN1CCCC13CCCCC3)c1ccccc1S2 = 22.4

# evaluate next
In: Fill blank: measured TGI of the compound "O=C1[C@@H]2[C@@H](CN3CN(c4ccccc4)N=C(c4ccccc4)[C@@]23c2ccccc2)C(=O)N1c1ccccc1" is ____.
Out: 3.29
